Assay: Indicative stability of Tafamidis Form C1 on storage up to 6 months
Format: physicochemical
Conditions: 3 months, 2-8° C.
Property Label: Water content KF (%)

Molecule: O=C(O)c1ccc2nc(-c3cc(Cl)cc(Cl)c3)oc2c1 [Form C1]
Units: %
Assay Result: 1.02

* * *

Assay: Indicative stability of Tafamidis Form C1 on storage up to 6 months
Assay type: physicochemical
Settings: 2 months, 2-8° C.

Molecule: O=C(O)c1ccc2nc(-c3cc(Cl)cc(Cl)c3)oc2c1 [Form C1]
Water content KF / %: 0.63

* * *

Assay: Indicative stability of Tafamidis Form C1 on storage up to 6 months
Assay type: physicochemical
Settings: 1 month, 25° C./60% RH

Compound: O=C(O)c1ccc2nc(-c3cc(Cl)cc(Cl)c3)oc2c1 [Form C1]
Water content KF: 0.85%

* * *

Experiment: Indicative stability of Tafamidis Form C1 on storage up to 6 months
Assay type: physicochemical
Conditions: 6 months, 25° C./60% RH

Compound: O=C(O)c1ccc2nc(-c3cc(Cl)cc(Cl)c3)oc2c1 [Form C1]
Units: %
Water content KF: 0.61

* * *

Test: Indicative stability of Tafamidis Form C1 on storage up to 6 months
Format: physicochemical
Details: 2 months, 40° C./75% RH

Compound: O=C(O)c1ccc2nc(-c3cc(Cl)cc(Cl)c3)oc2c1 [Form C1]
Water content KF (%): 0.78

* * *

Experiment: Indicative stability of Tafamidis Form C1 on storage up to 6 months
Assay type: physicochemical
Conditions: 3 months, 25° C./60% RH
Property Label: Water content KF

Compound: O=C(O)c1ccc2nc(-c3cc(Cl)cc(Cl)c3)oc2c1 [Form C1]
Assay Result: 0.92%

* * *

Experiment: Forced degradation study (solid state stability) of Tafamidis Form C1
Format: physicochemical
Conditions: 7 D, 25° C./60% RH Open cup

Compound: O=C(O)c1ccc2nc(-c3cc(Cl)cc(Cl)c3)oc2c1 [Form C1]
Water content KF, %: 0.48

* * *

Test: Indicative stability of Tafamidis Form C1 on storage up to 6 months
Assay type: physicochemical
Conditions: 0, Initial
Property Label: Water content KF (%)

Compound: O=C(O)c1ccc2nc(-c3cc(Cl)cc(Cl)c3)oc2c1 [Form C1]
Property Label: Water content KF
Assay Result: 0.34

* * *

Assay: Forced degradation study (solid state stability) of Tafamidis Form C1
Format: physicochemical
Settings: 0 D, Initial
Property Label: Water content KF (%)

Molecule: O=C(O)c1ccc2nc(-c3cc(Cl)cc(Cl)c3)oc2c1 [Form C1]
Assay Result: 0.57

* * *

Test: Indicative stability of Tafamidis Form C1 on storage up to 6 months
Assay type: physicochemical
Conditions: 1 month, 40° C./75% RH

Compound: O=C(O)c1ccc2nc(-c3cc(Cl)cc(Cl)c3)oc2c1 [Form C1]
Units: %
Water content KF: 0.8

* * *

Experiment: Indicative stability of Tafamidis Form C1 on storage up to 6 months
Type: physicochemical
Conditions: 1 month, 2-8° C.

Molecule: O=C(O)c1ccc2nc(-c3cc(Cl)cc(Cl)c3)oc2c1 [Form C1]
Units: %
Water content KF: 0.88

* * *

Test: Indicative stability of Tafamidis Form C1 on storage up to 6 months
Assay type: physicochemical
Details: 6 months, 2-8° C.

Compound: O=C(O)c1ccc2nc(-c3cc(Cl)cc(Cl)c3)oc2c1 [Form C1]
Units: %
Water content KF: 0.79

* * *

Test: Indicative stability of Tafamidis Form C1 on storage up to 6 months
Type: physicochemical
Details: 2 months, 25° C./60% RH
Property Label: Water content KF (%)

Molecule: O=C(O)c1ccc2nc(-c3cc(Cl)cc(Cl)c3)oc2c1 [Form C1]
Property Label: Water content KF
Units: %
Assay Result: 0.68
